Target: human TYK2 (JH2domain-pseudokinase) (Homo sapiens (Human), UniProt P29597)
Sequence (P29597 556-888): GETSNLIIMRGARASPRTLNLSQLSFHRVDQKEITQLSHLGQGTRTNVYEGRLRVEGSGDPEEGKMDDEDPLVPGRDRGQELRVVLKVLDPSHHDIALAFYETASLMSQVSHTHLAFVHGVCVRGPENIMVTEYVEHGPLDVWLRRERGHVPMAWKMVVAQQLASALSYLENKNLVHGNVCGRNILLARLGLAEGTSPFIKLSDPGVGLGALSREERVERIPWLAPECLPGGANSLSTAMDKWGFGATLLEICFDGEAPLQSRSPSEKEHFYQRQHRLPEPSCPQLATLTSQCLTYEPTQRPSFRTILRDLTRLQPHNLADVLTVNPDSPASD
Test: TYK2 JH2 Domain Binding Assay (KINOMEscan)
Details: Table 4, JH2 binding assay; read-out: JH2 Kd
Metric Name: Kd

In the examples that follow, each entry is paired with its recorded Kd.
{"Compound": "COc1c(Cl)cccc1Nc1cc(Nc2cc3n(n2)CCCC3)nc2[nH]n(C)c(=O)c12", "Kd": "1000 to 10000 pM"}
{"Compound": "COc1c(C#N)cccc1Nc1cc(Nc2ccc(N3CCOCC3)cn2)nc2[nH]n(C)c(=O)c12", "Kd": "> 10000 pM"}
{"Compound": "COc1c(C#N)cccc1Nc1cc(Nc2ccc(C)cn2)nc2[nH]n(C)c(=O)c12", "Kd": "> 10000 pM"}

Could you tell me which Kd is on file for `COc1c(Cl)cccc1Nc1cc(Nc2ccc(C(=O)N3CCOCC3)c(C(F)(F)F)n2)nc2[nH]n(C)c(=O)c12` ?
100 to 500 pM

Could you tell me which Kd is on file for `Cn1[nH]c2nc(Nc3cccc(C(F)(F)F)n3)cc(Nc3ccccc3S(C)(=O)=O)c2c1=O` ?
100 to 500 pM

Could you tell me which Kd is on file for `COc1c(F)cccc1Nc1cc(Nc2ccc(C#N)cn2)nc2[nH]n(C)c(=O)c12` ?
1000 to 10000 pM

Could you tell me which Kd is on file for `CN(c1ccccc1Nc1cc(Nc2cnc3c(n2)CCC3)nc2[nH]n(C)c(=O)c12)S(C)(=O)=O` ?
< 100 pM

Could you tell me which Kd is on file for `COc1c(F)cccc1Nc1cc(Nc2cccc(C(F)(F)F)n2)nc2[nH]n(C)c(=O)c12` ?
1000 to 10000 pM

Could you tell me which Kd is on file for `CN(c1cc(N2CCC2)ccc1Nc1cc(NC(=O)C2CC2)nc2[nH]n(C)c(=O)c12)S(C)(=O)=O` ?
100 to 500 pM

Could you tell me which Kd is on file for `COc1c(Nc2cc(Nc3cccc(N4CC(OC)C4)n3)nc3[nH]n(C)c(=O)c23)cccc1-c1nnn(C)n1` ?
100 to 500 pM

Could you tell me which Kd is on file for `COc1cccnc1Nc1cc(NC(=O)C2CC2)nc2[nH]n(C)c(=O)c12` ?
1000 to 10000 pM

Could you tell me which Kd is on file for `COc1c(Cl)cccc1Nc1cc(Nc2cnc(C3CC3)c(C#N)n2)nc2[nH]n(C)c(=O)c12` ?
> 10000 pM

Could you tell me which Kd is on file for `Cn1[nH]c2nc(Nc3ccc(N4CCCCC4)cn3)cc(Nc3ccccc3S(C)(=O)=O)c2c1=O` ?
> 10000 pM

* * *

Biological target: human TYK2 (JH2domain-pseudokinase) (Homo sapiens (Human), UniProt P29597)
Assay: TYK2 JH2 Domain Binding Assay (KINOMEscan)
Conditions: Table 4, JH2 binding assay; read-out: JH2 Kd
Metric Name: Kd

In the examples that follow, each entry is paired with its recorded Kd.
{"Compound": "COc1c(F)cccc1Nc1cc(Nc2ccc(N3CCOCC3)cn2)nc2[nH]n(C)c(=O)c12 [Compound I-89]", "Result": "1 to 10 nM"}
{"Compound": "Cc1ccc(Nc2cc(Nc3ccccc3S(C)(=O)=O)c3c(=O)n(C)[nH]c3n2)nc1 [Compound I-111]", "Result": "0.1 to 0.5 nM"}
{"Compound": "Cn1[nH]c2nc(Nc3ccc(C#N)cn3)cc(Nc3ccc(C4CC4)cc3S(C)(=O)=O)c2c1=O [Compound I-213]", "Result": "0.1 to 0.5 nM"}
{"Compound": "COc1c(Nc2cc(Cl)nc3[nH]n(C)c(=O)c23)cccc1-c1nnn(C)n1 [Compound I-27]", "Result": "> 10 nM"}
{"Compound": "COc1c(Cl)cccc1Nc1cc(Nc2cc(C)nc(C)n2)nc2[nH]n(C)c(=O)c12 [Compound I-96]", "Result": "0.1 to 0.5 nM"}

Could you tell me which Kd is on file for COc1c(Nc2cc(Nc3ccccn3)nc3[nH]n(C)c(=O)c23)cccc1-c1ncn(C)n1 [Compound I-17] ?
< 0.1 nM

Could you tell me which Kd is on file for Cc1ccc(Nc2cc(Nc3ccc(Cl)cc3S(C)(=O)=O)c3c(=O)n(C)[nH]c3n2)nn1 [Compound I-157] ?
0.5 to 1 nM

Could you tell me which Kd is on file for CN(c1ccccc1Nc1cc(Nc2cc3c(cn2)COC3)nc2[nH]n(C)c(=O)c12)S(C)(=O)=O [Compound I-227] ?
< 0.1 nM

Could you tell me which Kd is on file for COc1c(Cl)cccc1Nc1cc(Nc2cnc(C(C)(C)OC)c(C#N)n2)nc2[nH]n(C)c(=O)c12 [Compound I-155] ?
0.5 to 1 nM

Could you tell me which Kd is on file for CN(c1ccccc1Nc1cc(NC(=O)[C@@H]2C[C@@H]2F)nc2[nH]n(C)c(=O)c12)S(C)(=O)=O [Compound I-216] ?
0.1 to 0.5 nM

Could you tell me which Kd is on file for COc1c(Cl)cccc1Nc1cc(Nc2ccc(C)c(C#N)n2)nc2[nH]n(C)c(=O)c12 [Compound I-132] ?
0.1 to 0.5 nM

Could you tell me which Kd is on file for CCc1ccc(Nc2cc(NC(=O)C3CC3)nc3[nH]n(C)c(=O)c23)c(N(C)S(C)(=O)=O)c1 [Compound I-217] ?
< 0.1 nM

Could you tell me which Kd is on file for COc1c(Nc2cc(NC(=O)C3CC3)nc3[nH]n(C)c(=O)c23)cccc1N1CCCC1=O [Compound I-88] ?
1 to 10 nM

* * *

Target: human TYK2 (JH2domain-pseudokinase) (Homo sapiens (Human))
Experiment: TYK2 JH2 Domain Binding Assay (KINOMEscan)
Settings: Table 4, JH2 binding assay; read-out: JH2 Kd
pKd: −log10 of the molar value.
Below, each entry is listed alongside its reported pKd.

In the examples that follow, each entry is paired with its recorded pKd.
{"Compound": "COc1c(Nc2cc(Nc3cccc(C#N)n3)nc3[nH]n(C)c(=O)c23)cccc1-c1nnn(C)n1 [Compound I-28]", "Metric Name": "pKd", "Result": "8.00 to 9.00"}
{"Compound": "COc1c(F)cccc1Nc1cc(Nc2ccccn2)nc2[nH]n(C)c(=O)c12 [Compound I-80]", "Metric Name": "pKd", "Result": "8.00 to 9.00"}
{"Compound": "CN(c1cc(Cl)ccc1Nc1cc(NC(=O)C2CC2)nc2[nH]n(C)c(=O)c12)S(C)(=O)=O [Compound I-228]", "Metric Name": "pKd", "Result": "9.30 to 10.00"}
{"Compound": "COc1c(Cl)cccc1Nc1cc(Nc2ccc(N3CCOCC3)cn2)nc2[nH]n(C)c(=O)c12 [Compound I-115]", "Metric Name": "pKd", "Result": "8.00 to 9.00"}
{"Compound": "CCNC(=O)c1cccc(Nc2cc(Nc3cccc(-c4nnn(C)n4)c3OC)c3c(=O)n(C)[nH]c3n2)n1 [Compound I-66]", "Metric Name": "pKd", "Result": "9.00 to 9.30"}
{"Compound": "COc1c(C#N)cccc1Nc1cc(Nc2ccc(C)nn2)nc2[nH]n(C)c(=O)c12 [Compound I-38]", "Metric Name": "pKd", "Result": "< 8.00"}
{"Compound": "COc1cc(CO)ccc1Nc1cc(Nc2cccc(C(F)(F)F)n2)nc2[nH]n(C)c(=O)c12 [Compound I-72]", "Metric Name": "pKd", "Result": "8.00 to 9.00"}
{"Compound": "COc1c(C#N)cccc1Nc1cc(Nc2cc(C)nc(C)n2)nc2[nH]n(C)c(=O)c12 [Compound I-39]", "Metric Name": "pKd", "Result": "< 8.00"}
{"Compound": "COc1c(Nc2cc(NC(=O)C3CC3)nc3[nH]n(C)c(=O)c23)cccc1-c1nnnn1C [Compound I-52]", "Metric Name": "pKd", "Result": "8.00 to 9.00"}
{"Compound": "COc1c(Cl)cccc1Nc1cc(Nc2ccc(C(=O)N3CCCC3)c(C(F)(F)F)n2)nc2[nH]n(C)c(=O)c12 [Compound I-128]", "Metric Name": "pKd", "Result": "9.30 to 10.00"}

Could you tell me which pKd is on file for COc1c(F)cccc1Nc1cc(Nc2cccc(C#N)n2)nc2[nH]n(C)c(=O)c12 [Compound I-81] ?
9.30 to 10.00

Could you tell me which pKd is on file for COc1c(Cl)cccc1Nc1cc(Nc2ccc(N3CCC3)c(C#N)n2)nc2[nH]n(C)c(=O)c12 [Compound I-144] ?
9.30 to 10.00

Could you tell me which pKd is on file for COc1c(Nc2cc(Nc3cc(C)nc(C)n3)nc3[nH]n(C)c(=O)c23)cccc1-c1ccn(C)n1 [Compound I-123] ?
9.30 to 10.00

Could you tell me which pKd is on file for [2H]C([2H])([2H])n1[nH]c2nc(NC(=O)C3CC3)cc(Nc3cccc(-c4nnn(C)n4)c3OC)c2c1=O [Compound I-100] ?
> 10.00

Could you tell me which pKd is on file for Cn1ccc(Nc2cc(Nc3ccccc3S(C)(=O)=O)c3c(=O)n(C)[nH]c3n2)n1 [Compound I-137] ?
9.00 to 9.30
